Value source: PubChem BioAssay (EPA / NIEHS)

assay: ATG_NFI_CIS: Attagene CIS-FACTORIAL HepG2 Assay for human Nuclear Factor I (NFI) (AID 2282989); settings: HepG2 cis-regulatory reporter, NFI response element transcription; actives raise or lower the signal
Activity calls are given as the source filed them. How the source made its calls: active means hit-call score of the fitted dose curve at least 0.9, where 1 is the maximum; inactive means score below 0.9.
The categories you may choose from are true (1) = active, false (0) = inactive

compound="CC1CCC(C(C)CS)CC1S (centres undefined)" class="false (0)"
compound=Clc1ccc2c(c1)C(N1CCNCC1)=Nc1ccccc1O2 class="false (0)"
compound=CCCCCCCCCC=O class="false (0)"
compound=CCCCCCCCCCCCCC(=O)O class="false (0)"
compound=Nc1ccc(S(N)(=O)=O)cc1 class="false (0)"

Test call for this compound, please: NNc1nc(-c2ccc(N)cc2)cs1
false (0)
